# TARGET_DESC: LPAR1 (Homo sapiens)
# Construct: host or cells: U2OS
# Sequence (Q92633 whole entry): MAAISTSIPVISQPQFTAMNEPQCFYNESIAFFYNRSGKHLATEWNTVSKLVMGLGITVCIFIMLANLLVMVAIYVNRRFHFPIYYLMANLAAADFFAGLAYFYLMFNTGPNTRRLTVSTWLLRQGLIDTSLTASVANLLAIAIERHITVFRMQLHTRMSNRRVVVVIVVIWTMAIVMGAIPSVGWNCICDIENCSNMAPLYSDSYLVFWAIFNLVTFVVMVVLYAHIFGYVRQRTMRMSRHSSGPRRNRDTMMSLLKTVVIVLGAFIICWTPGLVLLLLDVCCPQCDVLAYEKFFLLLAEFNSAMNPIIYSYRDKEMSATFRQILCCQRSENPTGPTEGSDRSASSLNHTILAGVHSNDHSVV
# EXPERIMENT: LPAR1 FLIPR Assay
# Type: cell-based
# ASSAY_CONTEXT: U2OS cells stably expressing LPAR1; LPA (EC80); Calcium 6 FLIPR dye; read-out: Maximum Inhibition
Threshold 80%. Emax below it: 1. Emax at it or above: -1.

These recorded examples may help you get a feel for the data.
MOLECULE	CLASS
COc1cc(C(=O)N(CCCc2ccccc2)CCCC(C)(C)C(=O)NS(C)(=O)=O)cc(OC)c1C [Example 162]	-1
COc1cc(OC)cc(C(=O)N(CCCCC(=O)O)CCCc2c(F)cccc2F)c1 [Example 137]	1
COc1cc(C(=O)N(CCCOC(=O)NS(C)(=O)=O)CCCc2ccccc2)cc(OC)c1C [Example 186]	-1
COc1cc(C(=O)N(CCCCC(=O)O)Cc2ccccc2)cc(OC)c1C [Example 94]	1
COc1cc(C(=O)N(CCCc2ccccc2)CC(=O)N[C@@H](Cc2cccs2)C(=O)O)cc(OC)c1C [Example 47]	-1

Exam item: is_below(Emax, 80%) for COc1cc(OC)cc(C(=O)N(CCCCC(=O)O)CCCc2ccccc2F)c1 [Example 134] ?
Marked response: 1

Exam item: is_below(Emax, 80%) for CNS(=O)(=O)NC(=O)CCCCN(CCCc1ccccc1)C(=O)c1cc(OC)cc(OC)c1 [Example 74] ?
Marked response: 1

Exam item: is_below(Emax, 80%) for COc1cc(C(=O)N(CCCCC(=O)O)CCc2ccccc2)cc(OC)c1C [Example 95] ?
Marked response: 1

Exam item: is_below(Emax, 80%) for COc1cc(C(=O)N(CCCc2ccccc2)CCOC(C)(C)C(=O)O)cc(OC)c1C [Example 55] ?
Marked response: -1

Exam item: is_below(Emax, 80%) for COc1cc(C(=O)N(CCCc2ccccc2)CCOCCC(=O)O)cc(OC)c1C [Example 56] ?
Marked response: -1

Exam item: is_below(Emax, 80%) for COc1cc(C(=O)N(CCCc2ccccc2)CCSCC2(C(=O)O)CC2)cc(OC)c1C [Example 61] ?
Marked response: -1
